Experiment: NCI Yeast Anticancer Drug Screen. Data for the rad50 strain (AID 155);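 also: 0% = growth of vehicle-only cultures of the same strain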
Details: S. cerevisiae rad50 strain growth inhibition; at 5.0 µM (retest, dose inferred, filed as 0.5)
The panel holds about 79,000 compounds, 15% with a hit somewhere; the sample as a whole holds those more often. The source made the active and inactive calls. Rule as the data show it: active = growth inhibition above about 70%; inactive = the rest.
Returns: one label drawn from 1 = active, 0 = inactive

compound="CCOC(=O)COc1c(OC)cc(C2C3=C(COC3=O)Oc3cc4c(cc32)OCO4)cc1OC (stereo unspecified)" group=0
compound="OC1(c2ccccc2)CCCc2ccc(Cl)cc21 (stereo unspecified)" group=0
compound=O=[N+]([O-])c1ccc(N/N=C/Cc2ccccc2)c([N+](=O)[O-])c1 group=0
compound=Cc1cc2cc3cc(C)c(N)cc3nc2cc1N group=1
compound=O=C(O)c1ccccc1/C=N/N=C1c2ccccc2-c2ccccc21 group=0

Now turn to the next compound.
Query: Could you kindly confirm the outcome this assay logged for "NC(=S)NC(=S)Nc1ccccc1" ?
Result: 0

----------
Assay: NCI Yeast Anticancer Drug Screen. Data for the sgs1 strain (AID 173);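 also: 0% = growth of vehicle-only control cultures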
Conditions: S. cerevisiae sgs1 mutant, at 3.7 µM, active compounds read high
Protocol: Growth inhibition of yeast strains with defined genetic alterations is measured as a screen for potential anti-cancer activity. Selected strains with alterations in DNA damage repair or cell cycle control were exposed to compounds and growth inhibition was measured relative to vehicle treated controls. The strain used in this assay is sgs1
This is part of a sample that, as a whole, favours compounds with a hit. Of some 79,000 tested, about 15% had one in any assay.
Overview of recorded growth inhibition for various molecules
The reply should be a number in %, with the unit left off.

molecule=CCCCCCCCCCCC1=NCCO1 measuredmetric="growth inhibition" unitannotation=% observed=-1

Query: Input "CS(=O)(=O)OCCN(CCOS(C)(=O)=O)c1ccc(C=Nc2ccc(-c3csc(COc4ccccc4)n3)cc2)cc1" , output reported growth inhibition.
Result: 14

----------
Overview of recorded growth inhibition for various molecules
Assay: NCI Yeast Anticancer Drug Screen. Data for the mlh1 strain (AID 171);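 also: 0% = growth of vehicle-treated control cultures of the same strain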
Conditions: S. cerevisiae mlh1 strain growth inhibition; at 1.2 µM; active compounds read high
This is part of a sample that, as a whole, favours compounds with a hit. Of some 79,000 tested, about 15% had one in any assay.
The reply should be a number in %, with the unit left off.

Known growth inhibition results, listed for orientation:
molecule=O=Cc1ccc2c(c1)C(=O)c1ccccc1C2=O measuredmetric="growth inhibition" unitannotation=% observed=2
molecule=NC(N)=NS(=O)(=O)c1ccc(Nc2c3ccccc3nc3c(C(=O)NCCO)cccc23)cc1 measuredmetric="growth inhibition" unitannotation=% observed=-2
molecule=Cc1nc(Nc2ccccc2[N+](=O)[O-])sc1C(=O)CC(=O)C(=O)Nc1c(C(C)C)cccc1C(C)C measuredmetric="growth inhibition" unitannotation=% observed=2
molecule=c1ccc(-c2cnc3ccccc3c2)cc1 measuredmetric="growth inhibition" unitannotation=% observed=2
molecule="CCCCCCCCCCCC1N=C(N)NC(CCCO)=C1C(=O)OC (centres undefined)" measuredmetric="growth inhibition" unitannotation=% observed=6
molecule=CCOC(=O)c1[nH]n(-c2ccccc2)c(=O)c1C=NC(=S)C(N)=S measuredmetric="growth inhibition" unitannotation=% observed=22
molecule=C(=Nc1ccc(-c2cc(-c3ccccc3)nc3ccc4ccccc4c23)cc1)c1ccccc1 measuredmetric="growth inhibition" unitannotation=% observed=8
molecule=N#CC(=Nc1ccccc1F)Nc1ccccc1F measuredmetric="growth inhibition" unitannotation=% observed=-1

Query: Input "O=C(/C=C\c1cccc(C(F)(F)F)c1)c1ccccc1" , output reported growth inhibition.
Result: -2

Query: Input COc1ccc(C2C3=C(COC3=O)OC(C)(C)Oc3cc4c(cc32)OCO4)cc1OC (centres undefined) , output reported growth inhibition.
Result: -11

Query: Input Oc1ccc2c(c1)C(O)CCCC2 (centres undefined) , output reported growth inhibition.
Result: 2

Query: Input "Cc1cc(C(C)(C)C)c(OCCCN2CCOCC2)c(C(C)(C)C)c1" , output reported growth inhibition.
Result: 3

Query: Input "Oc1ccc2ccccc2c1CCc1c(O)ccc2ccccc12" , output reported growth inhibition.
Result: 5

Query: Input "CC1(C)CC(=O)C(/C=N/c2nc(-c3ccccc3)cs2)=C(O)C1" , output reported growth inhibition.
Result: 0

Query: Input O=C1/C(=C/c2ccccc2)CCCC1CN1CCCCC1 (centres undefined) , output reported growth inhibition.
Result: 4

Query: Input "CNCCCNc1c2ccccc2nc2cccc([N+](=O)[O-])c12" , output reported growth inhibition.
Result: 18

Query: Input "NNC(=O)CCc1cc2ccccc2c2ccccc12" , output reported growth inhibition.
Result: -13

Query: Input OC1(c2ccccc2)CCCc2ccc(Cl)cc21 (centres undefined) , output reported growth inhibition.
Result: 1

Query: Input O=C1OC(C2=CC(=O)c3ccccc3C2=O)C(Cl)=C1Cl (centres undefined) , output reported growth inhibition.
Result: -2

Query: Input "CCOC(=O)C(C(=O)OCC)=P(c1ccccc1)(c1ccccc1)c1ccccc1" , output reported growth inhibition.
Result: 1

----------
Assay: NCI Yeast Anticancer Drug Screen. Data for the rad14 strain (AID 159);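 also: 0% = growth of vehicle-treated control cultures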
Conditions: S. cerevisiae rad14 strain growth inhibition; at 33.0 µM
About 79,000 compounds went through this panel and 15% of them were active in at least one assay; those are over-represented in the sample as a whole. Calls of active or inactive are those of the source. Cut-off read from the data, not from the text of the source: active = growth inhibition above about 70%; inactive = the rest.
Returns: one label drawn from y = active, n = inactive

Field: example entries. Status: answers known.
molecule="O=C(O)CCCC1CCCc2c1ccc1ccccc21 (stereo unspecified)" group=n
molecule=COc1cc(/C=N/Nc2nnc3c4ccccc4c4ncccc4c3n2)cc(OC)c1OC group=n
molecule=Cc1cc(C(C)(C)CC(C)(C)C)ccc1O group=y

Query: Could you kindly confirm the outcome this assay logged for "Nc1n[n+]([O-])c2ccc(Cl)cc2[n+]1[O-]" ?
Result: y

Query: Could you kindly confirm the outcome this assay logged for Cn1c(=O)c2c(nc(N)n2C2OC(CO)C(O)C2O)n(C)c1=O (stereo unspecified) ?
Result: n

Query: Could you kindly confirm the outcome this assay logged for "O=C(O)Cc1cc(F)ccc1C(=O)O" ?
Result: n

----------
Experiment: NCI Yeast Anticancer Drug Screen. Data for the mlh1 rad18 strain (AID 175)
Settings: S. cerevisiae mlh1 rad18 strain growth inhibition; at 5.0 µM (retest, dose inferred, filed as 0.5)
The panel holds about 79,000 compounds, 15% with a hit somewhere; the sample as a whole holds those more often. Activity calls are given as the source filed them. Cut-off read from the data, not from the text of the source: active = growth inhibition above about 70%; inactive = the rest.
Returns: one label drawn from 1 (yes) = active, 0 (no) = inactive

Field: example entries. Status: answers known.
molecule=Cc1c(C)c(C)c(CSC(=N)N)c(C)c1C group="0 (no)"
molecule=CCOc1c(N=Nc2ccccc2OC)c(C)nn1C(=S)S group="0 (no)"
molecule=NNC(=O)CCc1cc2ccccc2c2ccccc12 group="0 (no)"
molecule=NC1CCCCC1N.Nc1c(N=Nc2ccc(-c3ccc(N=Nc4cc(S(=O)(=O)[O-])c5ccccc5c4N)cc3)cc2)cc(S(=O)(=O)[O-])c2ccccc12.[OH3+].[OH3+].[Pt+4] group="1 (yes)"

Query: Could you kindly confirm the outcome this assay logged for COC(=O)NC1C(C)OC(OC2C/C=C(/C)C3C=CC4C(OC5CC(OC6CC(O)C(OC7CC(O)C(OC)C(C)O7)C(C)O6)C(O)C(C)O5)C(C)CC(C)C4C3(C)/C(O)=C3\C(=O)OC4(CC(C)C(CO)=CC4/C=C\2C)C3=O)CC1(C)[N+](=O)[O-] (centres undefined) ?
Result: 0 (no)

Query: Could you kindly confirm the outcome this assay logged for "O=C(NO)Nc1cc(Cl)cc(Cl)c1" ?
Result: 0 (no)

Query: Could you kindly confirm the outcome this assay logged for "Cc1ccc([N+]2=NC(c3ccccc3)=NN(c3ccccc3)C2)cc1" ?
Result: 0 (no)

Query: Could you kindly confirm the outcome this assay logged for CC(=O)OC1CC2C(C)(C)C(=O)C=C[C@]2(C)C2CCC3(C)C(=CCC3[C@H](CO)C[C@H](O)C(=O)C(C)(C)O)[C@]12C (some centres undefined) ?
Result: 0 (no)

Query: Could you kindly confirm the outcome this assay logged for O=C1OC(OC/C(Br)=C(\Br)COC2OC(=O)C(Cl)=C2Cl)C(Cl)=C1Cl (centres undefined) ?
Result: 0 (no)

----------
Experiment: NCI Yeast Anticancer Drug Screen. Data for the rad50 strain (AID 155);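 also: 0% = growth of vehicle-only cultures of the same strain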
Settings: S. cerevisiae rad50 strain growth inhibition; at 1.2 µM; active compounds read high
About 79,000 compounds went through this panel and 15% of them were active in at least one assay; those are over-represented in the sample as a whole.
measuredMetric: growth inhibition (%)
The reply should be a number in %, with the unit left off.

Known growth inhibition results, listed for orientation:
compound=CSc1nc(C)c(CCOC(C)=O)c(N=P(c2ccccc2)(c2ccccc2)c2ccccc2)n1 observed=7
compound=CC(C)(C)C1=CC(=CC=C2C=CN(CCCCCCCCCCCO)C=C2)C=C(C(C)(C)C)C1=O observed=-3
compound=CN(C)N=Nc1ccccc1C(=O)NC#N observed=-5
compound="CCCCCCN(CCCCCC)CC(O)c1ccnc2ccc(OC)cc12 (stereo not given)" observed=1

Query: Input "C(=Nc1ccc(-c2cc(-c3ccccc3)nc3ccc4ccccc4c23)cc1)c1ccccc1" , output reported growth inhibition.
Result: 23
